src = patent US8658604B2

biological target: Chymotrypsin, from human pancreas (Homo sapiens, UniProt P17538); assay: Enzymatic assay, chymotrypsin; conditions: at 100 μM
Sequence (P17538 19-263): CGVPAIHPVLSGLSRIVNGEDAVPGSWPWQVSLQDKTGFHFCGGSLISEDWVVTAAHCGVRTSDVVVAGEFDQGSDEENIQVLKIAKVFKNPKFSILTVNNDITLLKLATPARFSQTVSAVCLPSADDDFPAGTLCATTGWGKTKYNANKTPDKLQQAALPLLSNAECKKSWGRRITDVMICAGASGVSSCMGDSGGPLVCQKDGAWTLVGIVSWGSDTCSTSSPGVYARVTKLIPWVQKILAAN
Where a SMILES comes first, the peptide text is derived from it.
QUANTITY KIND: Chymotrypsin at 100 μM %

Here are 3 compounds together with their reported answers.
{"COMPOUND": "CC[C@H](C)[C@@H]1NC(=O)[C@@H]2CCCN2C(=O)[C@@H]2CCCN2C(=O)[C@H](CC(=O)O)NC(=O)[C@H](CO)NC(=O)[C@H](CCCCN)NC(=O)[C@H]([C@@H](C)O)NC(=O)[C@@H]2CSSC[C@H](NC1=O)C(=O)N[C@@H](Cc1ccc(O)cc1)C(=O)N1CCC[C@@H]1C(=O)N1CCC[C@H]1C(=O)N[C@@H](Cc1ccccc1)C(=O)N2 [Ex. 5] (HELM PEPTIDE1{F.C.T.K.S.D.P.P.I.C.Y.[dP].P}$PEPTIDE1,PEPTIDE1,2:R3-10:R3|PEPTIDE1,PEPTIDE1,1:R1-13:R2$$$V2.0)", "Chymotrypsin at 100 μM %": "3%"}
{"COMPOUND": "CCCC[C@@H]1NC(=O)[C@H](CC(=O)O)NC(=O)[C@H]2CCCN2C(=O)[C@H](Cc2ccc(O)cc2)NC(=O)[C@@H]2CSSC[C@H](NC1=O)C(=O)N[C@@H]([C@@H](C)O)C(=O)N[C@@H](C)C(=O)N[C@@H](CO)C(=O)N[C@@H]([C@@H](C)CC)C(=O)N1CCC[C@H]1C(=O)N1CCC[C@H]1C(=O)N[C@@H](CCC(N)=O)C(=O)N2 [Ex. 168] (HELM PEPTIDE1{[Nle].C.T.A.S.I.P.P.Q.C.Y.[dP].D}$PEPTIDE1,PEPTIDE1,2:R3-10:R3|PEPTIDE1,PEPTIDE1,1:R1-13:R2$$$V2.0)", "Chymotrypsin at 100 μM %": "72.9%"}
{"COMPOUND": "CC[C@H](C)[C@@H]1NC(=O)[C@H](C)NC(=O)[C@@H]2CCCN2C(=O)[C@H](CC(=O)O)NC(=O)[C@H](CO)NC(=O)[C@H](CCCCN)NC(=O)[C@H]([C@@H](C)O)NC(=O)[C@@H]2CSSC[C@H](NC1=O)C(=O)N[C@@H](CCCNC(=N)N)C(=O)N1CCC[C@@H]1C(=O)N1CCC[C@H]1C(=O)N[C@@H]([C@@H](C)CC)C(=O)N2 [Ex. 52] (HELM PEPTIDE1{I.C.T.K.S.D.P.A.I.C.R.[dP].P}$PEPTIDE1,PEPTIDE1,2:R3-10:R3|PEPTIDE1,PEPTIDE1,1:R1-13:R2$$$V2.0)", "Chymotrypsin at 100 μM %": "0%"}

Prompt: What value of measured Chymotrypsin at 100 μM % is listed for CC[C@H](C)[C@@H]1NC(=O)[C@@H]2CCCN2C(=O)[C@@H]2CCCN2C(=O)[C@H](CC(=O)O)NC(=O)[C@H](CO)NC(=O)[C@H](CCCCN)NC(=O)[C@H]([C@@H](C)O)NC(=O)[C@@H]2CSSC[C@H](NC1=O)C(=O)N[C@@H](CO)C(=O)N1CCC[C@@H]1C(=O)N[C@@H](CCC(=O)O)C(=O)N[C@@H](Cc1ccccc1)C(=O)N2 [Ex. 64] (HELM PEPTIDE1{F.C.T.K.S.D.P.P.I.C.S.[dP].E}$PEPTIDE1,PEPTIDE1,2:R3-10:R3|PEPTIDE1,PEPTIDE1,1:R1-13:R2$$$V2.0) ?
Completion: 0%
